Attribution: patent US20250163127A1

- Measurement target: PD-L1 (human)
- Sequence (chain, as listed by the source): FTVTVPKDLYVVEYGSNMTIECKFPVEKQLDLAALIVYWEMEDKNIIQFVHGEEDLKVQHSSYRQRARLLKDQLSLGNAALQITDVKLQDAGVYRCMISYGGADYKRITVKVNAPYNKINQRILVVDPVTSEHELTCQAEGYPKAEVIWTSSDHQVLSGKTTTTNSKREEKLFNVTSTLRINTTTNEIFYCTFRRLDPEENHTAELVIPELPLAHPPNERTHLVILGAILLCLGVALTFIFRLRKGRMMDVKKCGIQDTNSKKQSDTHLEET
- Experiment notes: flow cytometry, CHO cells stably expressing PD-L1
Readout label: MFI at 33.3 nM
Provide the measurement as a number trailed by its unit.

Answered examples (3):
# Binder, Value
data = [
    ("CD80 variant E35D/M47V/A71G/L85M/L97Q IgV-Fc (Fc fusion) VIHVTKEVKEVATLSCGHNVSVEELAQTRIYWQKDKKMVLTMMSGDVNIWPEYKNRTIFDITNNLSIVILGLRPSDEGTYECVVMKYEKDAFKREHQAEVT", "61700 MFI"),
    ("CD80 variant Q33L/E35D/M43V/M47I/A71G IgV-Fc (Fc fusion) VIHVTKEVKEVATLSCGHNVSVEELAQTRIYWLKDKKMVLTMVSGDINIWPEYKNRTIFDITNNLSIVILGLRPSDEGTYECVVLKYEKDAFKREHLAEVT", "78000 MFI"),
    ("CD80 variant H18Y/V20A/Q33L/E35D/M47V/Y53F IgV-Fc (Fc fusion) VIHVTKEVKEVATLSCGYNASVEELAQTRIYWLKDKKMVLTMMSGDVNIWPEFKNRTIFDITNNLSIVILALRPSDEGTYECVVLKYEKDAFKREHLAEVT", "121000 MFI"),
]

Continue with the next binder.
stdin: State the recorded MFI at 33.3 nM for this entry: CD80 variant Q33K/E35D/M47V/K89E/K93R IgV-Fc (Fc fusion) VIHVTKEVKEVATLSCGHNVSVEELAQTRIYWKKDKKMVLTMMSGDVNIWPEYKNRTIFDITNNLSIVILALRPSDEGTYECVVLKYEEDAFRREHLAEVT
stdout: 39100 MFI
